Biological target: T1, sIL-6R (soluble IL-6 receptor; SBH Sciences) (human, UniProt P08887 20-365)
T1 construct: also called human IL-6R
T1 sequence: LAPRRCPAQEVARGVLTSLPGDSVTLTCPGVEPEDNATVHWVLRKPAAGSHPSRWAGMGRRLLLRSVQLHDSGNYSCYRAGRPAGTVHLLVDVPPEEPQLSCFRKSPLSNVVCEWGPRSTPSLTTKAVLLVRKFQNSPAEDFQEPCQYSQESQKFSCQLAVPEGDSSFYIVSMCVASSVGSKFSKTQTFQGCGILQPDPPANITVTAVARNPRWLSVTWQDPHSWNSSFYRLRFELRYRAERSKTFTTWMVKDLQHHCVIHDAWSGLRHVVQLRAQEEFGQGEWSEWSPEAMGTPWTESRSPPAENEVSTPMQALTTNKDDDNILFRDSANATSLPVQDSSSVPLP
Assay: SPR (BIAcore 3000), antibody on chip, sIL-6R analyte, 25 C
The following binders are shown together with reported pKd values.
Just so you know, pKd here is -log10 of the concentration in molar units; reply with that number alone.

Guide cases for pKd, answers given:
Recorded result, 204# (antibody, human IgG1, kappa, V domains shown) VH: QVQLQESGPGLVRPSQTLSLTCTVSGYSITSDHAWSWVRQPPGRGLEWIGFISYSGMTTYNPSLKSRVTMLRDTSKNQFSLRLSSVTAADTAVYYCARCLARITAMDYWGQGSLVTVSS VL: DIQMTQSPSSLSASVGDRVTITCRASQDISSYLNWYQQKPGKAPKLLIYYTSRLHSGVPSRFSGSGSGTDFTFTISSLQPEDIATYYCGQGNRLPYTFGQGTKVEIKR , pKd: 10.84

Recorded result, Tocilizumab (antibody, human IgG1, kappa, V domains shown, also called 25; 25(control)) VH: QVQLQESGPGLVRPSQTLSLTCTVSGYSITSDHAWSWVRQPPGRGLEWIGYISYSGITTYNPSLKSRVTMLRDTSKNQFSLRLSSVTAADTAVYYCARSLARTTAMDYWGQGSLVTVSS VL: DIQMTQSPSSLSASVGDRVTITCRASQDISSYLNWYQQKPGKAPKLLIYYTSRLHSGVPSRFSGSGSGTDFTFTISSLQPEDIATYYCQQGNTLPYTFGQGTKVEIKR , pKd: 8.55

Recorded result, 60# (antibody, human IgG1, kappa, V domains shown, also called Sample # 60) VH: QVQLQESGPGLVRPSQTLSLTCTVSGYSITSDHAWSWVRQPPGRGLEWIGFISYSGMTTYNPSLKSRVTMLRDTSKNQFSLRLSSVTAADTAVYYCARSLARITAMDYWGQGSLVTVSS VL: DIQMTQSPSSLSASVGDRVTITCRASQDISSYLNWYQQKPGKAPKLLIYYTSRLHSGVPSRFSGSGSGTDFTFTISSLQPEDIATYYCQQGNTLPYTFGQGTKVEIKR , pKd: 9.69

Recorded result, 203# (antibody, human IgG1, kappa, V domains shown, also called Sample # 203) VH: QVQLQESGPGLVRPSQTLSLTCTVSGYSITSDHAWSWVRQPPGRGLEWIGYISYSGITTYNPSLKSRVTMLRDTSKNQFSLRLSSVTAADTAVYYCARCLARMTAMDYWGQGSLVTVSS VL: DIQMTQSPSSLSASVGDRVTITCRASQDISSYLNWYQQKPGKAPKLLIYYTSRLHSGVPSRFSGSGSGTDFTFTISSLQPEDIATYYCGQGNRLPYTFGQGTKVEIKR , pKd: 9.48

Recorded result, 208# (antibody, human IgG1, kappa, V domains shown, also called Sample # 208) VH: QVQLQESGPGLVRPSQTLSLTCTVSGYSITSDHAWSWVRQPPGRGLEWIGFISYSGMTTYNPSLKSRVTMLRDTSKNQFSLRLSSVTAADTAVYYCARSLARATAMDYWGQGSLVTVSS VL: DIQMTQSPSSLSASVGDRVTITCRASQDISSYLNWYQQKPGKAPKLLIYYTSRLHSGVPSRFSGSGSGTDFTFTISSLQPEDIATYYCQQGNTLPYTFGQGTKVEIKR , pKd: 9.90

Recorded result, 66# (antibody, human IgG1, kappa, V domains shown, also called Sample # 66) VH: QVQLQESGPGLVRPSQTLSLTCTVSGYSITSDHAWSWVRQPPGRGLEWIGFISYSGMTTYNPSLKSRVTMLRDTSKNQFSLRLSSVTAADTAVYYCARSLARMTAMDYWGQGSLVTVSS VL: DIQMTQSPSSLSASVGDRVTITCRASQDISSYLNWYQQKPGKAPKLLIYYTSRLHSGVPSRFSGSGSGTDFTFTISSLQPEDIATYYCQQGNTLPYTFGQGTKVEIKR , pKd: 9.85

Recorded result, 49# (antibody, human IgG1, kappa, V domains shown, also called Sample # 49) VH: QVQLQESGPGLVRPSQTLSLTCTVSGYSITSDHAWSWVRQPPGRGLEWIGYISYSGITTYNASLKSRVTMLRDTSKNQFSLRLSSVTAADTAVYYCARSLARTTAMDYWGQGSLVTVSS VL: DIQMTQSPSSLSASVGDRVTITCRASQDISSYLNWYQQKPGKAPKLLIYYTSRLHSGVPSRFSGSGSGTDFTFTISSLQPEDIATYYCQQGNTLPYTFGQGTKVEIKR , pKd: 8.78

Recorded result, 62# (antibody, human IgG1, kappa, V domains shown, also called Sample # 62) VH: QVQLQESGPGLVRPSQTLSLTCTVSGYSITSDHAWSWVRQPPGRGLEWIGFISYSGMTTYNPSLKSRVTMLRDTSKNQFSLRLSSVTAADTAVYYCARCLARATAMDYWGQGSLVTVSS VL: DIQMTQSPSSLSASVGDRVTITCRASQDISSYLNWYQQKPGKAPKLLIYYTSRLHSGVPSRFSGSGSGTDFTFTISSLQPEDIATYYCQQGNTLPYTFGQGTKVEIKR , pKd: 10.59

Next:
Recorded result, 202# (antibody, human IgG1, kappa, V domains shown) VH: QVQLQESGPGLVRPSQTLSLTCTVSGYSITSDHAWSWVRQPPGRGLEWIGYISYSGITTYNPSLKSRVTMLRDTSKNQFSLRLSSVTAADTAVYYCARVLARITAMDYWGQGSLVTVSS VL: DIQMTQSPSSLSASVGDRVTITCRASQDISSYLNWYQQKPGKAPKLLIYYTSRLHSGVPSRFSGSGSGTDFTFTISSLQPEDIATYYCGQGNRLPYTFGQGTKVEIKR , pKd: 10.54

Recorded result, 64# (antibody, human IgG1, kappa, V domains shown, also called Sample # 64) VH: QVQLQESGPGLVRPSQTLSLTCTVSGYSITSDHAWSWVRQPPGRGLEWIGFISYSGMTTYNPSLKSRVTMLRDTSKNQFSLRLSSVTAADTAVYYCARCLARMTAMDYWGQGSLVTVSS VL: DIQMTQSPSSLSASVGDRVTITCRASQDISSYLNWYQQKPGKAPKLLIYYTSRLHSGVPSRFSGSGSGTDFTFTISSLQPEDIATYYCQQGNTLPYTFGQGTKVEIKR , pKd: 9.88
